Molecular target: hERG1a/1b (heteromeric hERG channel, IhERG) (Homo sapiens)
Construct: gene KCNH2
Sequence (Q12809 whole entry): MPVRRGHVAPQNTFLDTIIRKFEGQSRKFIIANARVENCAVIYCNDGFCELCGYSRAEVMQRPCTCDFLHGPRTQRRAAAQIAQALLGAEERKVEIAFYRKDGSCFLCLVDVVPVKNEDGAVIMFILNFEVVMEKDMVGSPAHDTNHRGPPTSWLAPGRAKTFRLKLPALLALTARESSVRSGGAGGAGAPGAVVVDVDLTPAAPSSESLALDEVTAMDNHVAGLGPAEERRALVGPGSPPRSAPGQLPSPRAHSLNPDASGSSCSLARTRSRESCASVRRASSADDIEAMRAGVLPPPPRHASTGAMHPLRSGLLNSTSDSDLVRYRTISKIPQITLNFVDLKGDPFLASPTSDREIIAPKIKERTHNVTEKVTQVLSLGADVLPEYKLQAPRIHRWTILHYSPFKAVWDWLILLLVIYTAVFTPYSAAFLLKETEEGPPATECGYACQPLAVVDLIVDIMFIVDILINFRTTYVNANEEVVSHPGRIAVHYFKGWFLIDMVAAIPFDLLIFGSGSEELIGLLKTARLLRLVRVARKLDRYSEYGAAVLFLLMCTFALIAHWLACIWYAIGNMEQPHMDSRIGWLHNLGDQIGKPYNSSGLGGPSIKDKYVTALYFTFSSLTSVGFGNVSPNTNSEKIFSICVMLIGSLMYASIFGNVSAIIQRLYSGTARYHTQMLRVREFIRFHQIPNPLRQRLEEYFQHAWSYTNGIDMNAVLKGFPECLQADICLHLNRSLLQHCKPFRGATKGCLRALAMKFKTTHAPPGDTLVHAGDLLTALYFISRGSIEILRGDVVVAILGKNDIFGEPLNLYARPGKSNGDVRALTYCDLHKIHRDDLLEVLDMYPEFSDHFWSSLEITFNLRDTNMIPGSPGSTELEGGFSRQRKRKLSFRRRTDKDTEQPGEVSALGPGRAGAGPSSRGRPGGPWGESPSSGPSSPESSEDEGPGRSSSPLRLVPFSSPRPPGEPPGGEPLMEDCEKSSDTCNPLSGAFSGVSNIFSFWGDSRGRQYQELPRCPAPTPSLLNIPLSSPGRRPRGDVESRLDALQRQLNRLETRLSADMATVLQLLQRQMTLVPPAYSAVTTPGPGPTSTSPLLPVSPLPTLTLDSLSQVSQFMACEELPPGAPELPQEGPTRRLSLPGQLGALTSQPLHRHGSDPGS
Sequence (Q12809 377-1159 limits assumed): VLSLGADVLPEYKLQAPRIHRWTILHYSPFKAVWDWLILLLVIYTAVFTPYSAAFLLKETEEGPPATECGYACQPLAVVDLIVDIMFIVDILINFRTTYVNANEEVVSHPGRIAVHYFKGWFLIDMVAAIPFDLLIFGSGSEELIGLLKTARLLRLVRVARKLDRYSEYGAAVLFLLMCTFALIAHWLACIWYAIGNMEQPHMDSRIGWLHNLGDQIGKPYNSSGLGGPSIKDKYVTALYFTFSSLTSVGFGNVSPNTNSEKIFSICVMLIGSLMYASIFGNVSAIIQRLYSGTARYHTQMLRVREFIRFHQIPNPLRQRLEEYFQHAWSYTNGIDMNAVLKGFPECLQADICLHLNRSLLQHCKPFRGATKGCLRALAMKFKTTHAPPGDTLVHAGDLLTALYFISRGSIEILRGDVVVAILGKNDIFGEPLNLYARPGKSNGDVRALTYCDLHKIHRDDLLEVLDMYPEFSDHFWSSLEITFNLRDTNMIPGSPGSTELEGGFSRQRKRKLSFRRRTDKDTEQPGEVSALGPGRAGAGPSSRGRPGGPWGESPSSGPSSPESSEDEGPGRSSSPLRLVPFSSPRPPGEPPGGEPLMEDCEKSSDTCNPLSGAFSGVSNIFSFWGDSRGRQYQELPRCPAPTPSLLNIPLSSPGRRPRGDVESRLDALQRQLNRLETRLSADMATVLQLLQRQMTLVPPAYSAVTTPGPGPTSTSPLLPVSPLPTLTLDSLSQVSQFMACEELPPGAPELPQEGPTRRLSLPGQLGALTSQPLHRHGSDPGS
Assay endpoint: IC50 (µM)

| Molecular string | Unit of measurement | Assay result |
| --- | --- | --- |
| CO[C@]12CC[C@@]3(C[C@@H]1[C@](C)(O)C(C)(C)C)[C@H]1Cc4ccc(O)c5c4[C@@]3(CCN1CC1CC1)[C@H]2O5 | µM | 6.9 |

----------
Target: hERG1a (homomeric hERG channel, IhERG) (Homo sapiens)
Construct: gene KCNH2
Assay endpoint: IC50 (µM)

| Compound | Unit of measurement | Assay result |
| --- | --- | --- |
| CO[C@]12CC[C@@]3(C[C@@H]1[C@](C)(O)C(C)(C)C)[C@H]1Cc4ccc(O)c5c4[C@@]3(CCN1CC1CC1)[C@H]2O5 [Buprenorphine] | µM | 8.7 |

----------
Biological target: hERG1a/1b (heteromeric hERG channel, IhERG) (Homo sapiens)
Construct: gene KCNH2
Experiment: whole-cell patch clamp, tail current
Assay endpoint: IC50

| Molecule | Assay endpoint | Assay result |
| --- | --- | --- |
| O=C1CC[C@@]2(O)[C@H]3Cc4ccc(O)c5c4[C@@]2(CCN3CC2CC2)[C@H]1O5 [Naltrexone] | IC50 | 32.3 µM |
